# TARGET OF ASSAY: Mitogen-activated protein kinase 14 (Mus musculus) (UniProt P47811)
# Sequence (P47811 whole entry, the tested form may be a part): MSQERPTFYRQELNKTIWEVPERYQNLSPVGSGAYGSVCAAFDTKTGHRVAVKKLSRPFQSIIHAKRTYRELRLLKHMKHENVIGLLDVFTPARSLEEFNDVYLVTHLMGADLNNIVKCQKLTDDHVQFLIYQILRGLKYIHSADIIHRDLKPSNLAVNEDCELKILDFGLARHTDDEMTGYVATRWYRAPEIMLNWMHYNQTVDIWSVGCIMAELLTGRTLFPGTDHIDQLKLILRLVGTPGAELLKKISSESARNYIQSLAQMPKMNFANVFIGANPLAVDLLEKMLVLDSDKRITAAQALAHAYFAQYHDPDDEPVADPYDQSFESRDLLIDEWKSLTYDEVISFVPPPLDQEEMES
# ASSAY COMMENT: Inhibition of kinase tracer 199 binding to mouse inactive p38alpha (2 to 349 residues) expressed in Escherichia coli by microscale thermophoresis assay
Activity calls are given as the source filed them. The rule behind the calls is not given here.
Outcomes you can answer with include only these: active, inactive

Exercise: # outcome recorded in this test, key = `CC(C)(C)c1cc(NC(=O)Nc2ccc(Cl)cc2)n(-c2ccccc2F)n1`
Key: active

Exercise: Write down the call the test reported for this molecule. Item: `CC(C)(C)c1cc(NC(=O)Nc2ccc(Cl)cc2)n(-c2ccc(F)cc2)n1`
Key: active

Exercise: Assay result, entry `COc1ccc(-n2nc(C(C)(C)C)cc2NC(=O)Nc2ccc(Cl)cc2)cc1` — outcome?
Key: active

Exercise: Record lookup: outcome of this test for `CC(C)(C)c1cc(NC(=O)Nc2ccc(Cl)cc2)n(-c2ccccc2Cl)n1` ?
Key: inactive

Exercise: For `COc1ccccc1-n1nc(C(C)(C)C)cc1NC(=O)Nc1ccc(Cl)cc1` , what call appears in the results of this test?
Key: inactive

Exercise: What did this assay record as the result for `CC(C)(C)c1cc(NC(=O)Nc2ccc(Cl)cc2)n(-c2ccc(Cl)cc2)n1` ?
Key: active
